# system.name: human TLR7 (Homo sapiens)
# Construct: TLR7 in pUNO vector, blasticidin selection
# Sequence (Q9NYK1 27-1049): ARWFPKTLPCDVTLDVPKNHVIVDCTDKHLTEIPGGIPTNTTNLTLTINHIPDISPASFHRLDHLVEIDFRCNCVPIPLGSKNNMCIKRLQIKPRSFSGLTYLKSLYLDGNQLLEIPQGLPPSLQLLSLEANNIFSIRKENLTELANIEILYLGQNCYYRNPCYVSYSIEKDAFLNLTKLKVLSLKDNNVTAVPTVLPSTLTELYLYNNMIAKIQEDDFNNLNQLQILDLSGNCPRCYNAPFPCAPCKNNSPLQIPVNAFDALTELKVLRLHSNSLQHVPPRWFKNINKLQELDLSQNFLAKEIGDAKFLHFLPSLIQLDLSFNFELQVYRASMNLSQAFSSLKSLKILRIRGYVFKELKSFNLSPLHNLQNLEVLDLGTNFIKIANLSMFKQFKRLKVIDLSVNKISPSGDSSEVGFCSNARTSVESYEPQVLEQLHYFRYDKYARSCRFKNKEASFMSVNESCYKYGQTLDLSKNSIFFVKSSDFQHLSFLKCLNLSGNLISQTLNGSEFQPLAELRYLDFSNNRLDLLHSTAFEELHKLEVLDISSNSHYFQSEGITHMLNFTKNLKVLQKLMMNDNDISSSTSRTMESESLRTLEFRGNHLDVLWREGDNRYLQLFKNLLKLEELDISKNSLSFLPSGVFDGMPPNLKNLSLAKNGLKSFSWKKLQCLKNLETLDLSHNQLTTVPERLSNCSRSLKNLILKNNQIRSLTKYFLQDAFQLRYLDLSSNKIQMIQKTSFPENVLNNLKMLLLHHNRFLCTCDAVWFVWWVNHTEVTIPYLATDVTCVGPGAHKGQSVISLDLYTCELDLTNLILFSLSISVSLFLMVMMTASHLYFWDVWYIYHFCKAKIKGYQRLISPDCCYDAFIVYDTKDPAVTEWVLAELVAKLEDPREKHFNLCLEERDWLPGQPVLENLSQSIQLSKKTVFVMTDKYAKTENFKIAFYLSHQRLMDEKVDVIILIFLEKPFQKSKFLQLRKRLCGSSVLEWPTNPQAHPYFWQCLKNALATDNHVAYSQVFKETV
# test.description: Human TLR7 Assay (SEAP reporter in HEK293 cells);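 note: Read-out is secreted alkaline phosphatase made under an NFkB/ELAM-1 composite promoter, reporting TLR7-triggered NFkB activation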
# measurement.parameters: HEK293 cell line expressing human TLR7 and pNiFty2-SEAP reporter, overnight incubation at 37° C., 0.1% DMSO; read-out: hTLR7 EC50
Label key: met means EC50 under 80 nM; not met means EC50 of 80 nM or more.

- compound: "CCOC(=O)C(C)(C)Oc1cccc(CN(CCCCn2c(CCOC)nc3c(N)nc4ccccc4c32)CCN(C)C)c1"
  category.label: "met"
- compound: "CCOC(=O)C1(Oc2cccc(CN(CCCn3c(CCOC)nc4c(N)nc5ccccc5c43)C(=O)CN(CC)CC)c2)CCC1"
  category.label: "met"
- compound: "CCOC(=O)COc1cc(CN(CCCn2c(CCOC)nc3c(N)nc4ccccc4c32)C(=O)CN(CC)CC)ccc1OC"
  category.label: "not met"
- compound: "CCOC(=O)COc1cccc(CN(CCCCn2c(CCOC)nc3c(N)nc4ccccc4c32)C(=O)NCCCN(C)C)c1"
  category.label: "not met"

Hello, is EC50 of the following compound strictly smaller than 80 nM? CCN(CC)CC(=O)N(CCCn1c(CCOC)nc2c(N)nc3ccccc3c21)Cc1cccc(OC(C)C(=O)OC)c1 (stereo not drawn) met

Hello, is EC50 of the following compound strictly smaller than 80 nM? CCOC(=O)C(C)(C)Oc1cccc(CN(CCCn2c(CCOC)nc3c(N)nc4ccccc4c32)C(=O)CN(C)CC)c1 not met

Sourced from patent US20110136801A1
